- assay-notes: Multiple-dose PK, SC bolus then continuous 13-day SC infusion, healthy European men
- experimental-parameters: male, human, plasma, sc, 0.1 mg, AUC (0-tlqc) (equal to AUC (0-24)), European men, SC bolus 0.1 mg on Day 1, dosing group 1.0 mg/day, geometric mean (% CV)
Where a SMILES comes first, the peptide text is derived from it. [ ]: non-standard residue; d: D form. Arg(Me) = CNC(=N)NCCC[C@H](N)C(=O)O; Hyp = O=C(O)[C@@H]1C[C@@H](O)CN1; azaGly = NNC(=O)O
readout-type: AUC(0-t) (ng·h/mL)
Your answer should be a plain number; it is taken to be in ng·h/mL.

Query: Which measured AUC(0-t) value corresponds to CC(=O)O.CNC(=N)NCCC[C@H](NC(=O)[C@H](CC(C)C)NC(=O)NNC(=O)[C@H](Cc1ccccc1)NC(=O)[C@@H](NC(=O)[C@H](CC(N)=O)NC(=O)[C@@H]1C[C@@H](O)CN1C(=O)[C@@H](Cc1ccc(O)cc1)NC(C)=O)[C@@H](C)O)C(=O)N[C@@H](Cc1c[nH]c2ccccc12)C(N)=O [API-MA] (Ac-[dY][Hyp]NTF[azaGly]L[Arg(Me)]W-NH2) ?
Result: 4.05

Reference source for all entries: patent US11013780B2
